# System: Zika virus NS2B-NS3 protease (unlinked complex)
# Test name: Primary screen GU Rhodamine qHTS for Zika virus inhibitors: Unlinked NS2B-NS3 protease assay (AID 1347159); also: nearly all actives have a fitted effect of over 60% in size
# Measurement setup: Recombinant ZIKV NS2B-NS3 protease, Rhodamine110 substrate fluorescence; series mostly up to 107 µM
Results filed as inconclusive are left out. The source made the active and inactive calls. Calls follow the shape of the dose curve; as a rule, active = well fitted inhibition curve with a large enough effect; inconclusive = small, poorly fitted or top-dose-only effect; inactive = no such curve, though single readings can be large or run the other way.
Returns: one label drawn from active, inactive

For orientation, consider the following solved cases.
{"columns": ["Molecule", "Label value"],
 "data": [
  ["CC1=C2CC3OC3(C)CCC3OC3(C)CC2OC1=O (stereo not given)", "inactive"],
  ["CC(=O)OC[C@@]12[C@H](O)C[C@@H](C)[C@]3(C[C@@H](c4ccoc4)OC3=O)[C@H]1C[C@H](O)C[C@]21CO1", "inactive"],
  ["CCc1cc2c(=O)c(-c3nc4ccccc4s3)coc2c(CN2CCCCC2)c1O", "active"],
  ["COc1cc(C[C@H]2COC(=O)[C@@H]2Cc2ccc(O)c(OC)c2)ccc1O", "active"]
]}

Now for a further molecule.
Inquiry: Per the records of this test, what outcome belongs to `Cc1cc(O)cc(Oc2cc(C)c(C(=O)O)c(O)c2)c1` ?
Reply text: active

====

# Tested on: CAOV3
# Test name: Primary qHTS to identify gynecologic anti-cancer compounds using libraries of approved drugs and bioactive compounds (AID 1345084); also: % is scaled to controls: 0 for no effect and ±100 for the full control effect; nearly all actives have a fitted effect of over 55% in size
# Measurement setup: Gynecologic cancer cell panel viability, ATPlite luminescence, 48 h; series mostly up to 57.5 µM
Inconclusive results are not listed. Calls of active or inactive are those of the source. The call rests on the fitted dose curve; in most records, active means well fitted cell-killing curve with a large enough effect; inconclusive means small, poorly fitted or top-dose-only effect, or effect the other way; inactive means flat fitted curve, though single readings scatter.
Assay endpoint: activity change, negative = cytotoxicity

{"columns": ["Compound", "activity change, negative = cytotoxicity"],
 "data": [
  ["OC[C@H]1O[C@@H](n2cnc3c(NCc4ccc(O)cc4)ncnc32)[C@H](O)[C@@H]1O", "inactive"],
  ["CCCCCCc1cccc(NC(=O)[C@H](N)CCP(=O)(O)O)c1", "5.39% [at 11.6 µM] (inactive)"],
  ["C[C@@H]1O[C@@H](O[C@H]2[C@H](O[C@H]3[C@H](O[C@H]4CC[C@@]5(CO)C(CC[C@]6(C)C5CC=C5C7CC(C)(C)C[C@@H](O)[C@]7(C)CC[C@]56C)C4(C)C)O[C@H](C(=O)O)[C@@H](O)[C@@H]3O)OC[C@@H](O)[C@@H]2O)[C@H](O)[C@H](O)[C@H]1O (stereo not given in full)", "7.01% [at 11.6 µM] (inactive)"],
  ["COc1cc(CCc2ccccc2)c(C(=O)O)c2c1CC(C(C)(C)O)O2 (stereo not given)", "inactive"],
  ["CCn1nnnc1NCc1ccc(C(C)C)cc1", "inactive"],
  ["OC1COC(OCC2OC(OCCc3ccccc3)C(O)C(O)C2O)C(O)C1O (stereo not given)", "inactive"],
  ["O=C(/C=C/c1ccc(O)cc1)OCC1=C[C@@H](O)[C@@H]2C=CO[C@@H](O[C@@H]3O[C@H](CO)[C@@H](O)[C@H](O)[C@H]3O)[C@H]12", "inactive"],
  ["CC(C)Nc1cc(-c2c[nH]c(C(=O)N[C@H](CO)c3cccc(Cl)c3)c2)c(Cl)cn1", "inactive"],
  ["C[C@]12C=CC(=O)C=C1CC[C@@H]1[C@@H]2[C@@H](O)C[C@@]2(C)[C@H]1CC[C@]2(O)C(=O)COC(=O)CCC(=O)O", "inactive"]
]}

Inquiry: Give the value of activity change, negative = cytotoxicity reported for the following: `CCC(=O)O[C@]1(C(=O)CCl)[C@@H](C)C[C@H]2[C@@H]3C[C@H](F)C4=CC(=O)C=C[C@]4(C)[C@@]3(F)[C@@H](O)C[C@@]21C`
Reply text: inactive
